test system: 786-0 renal; assay: NCI-60 one-dose screen, 48 h; conditions: 10 µM unless noted
Compounds without any hit were thinned out: in the full panel of roughly 83,000, 20% have a hit. The source made the active and inactive calls. How the source made its calls: active means growth percent below 10; inactive means the rest.
Hi there, use one of these labels in your reply, thanks! active, inactive

Illustrative cases are given below, each with its answer.
NC(=O)/C=C/C(=O)c1c(Cl)cccc1Cl
active
Oc1c(Cl)c2ccccc2c2ccccc12
inactive
Cc1cc(C(C)(CC(C)C)c2ccc(O)c(C)c2)ccc1O
inactive
C=C(Cl)C(=NC(C)(C)C)Nc1ccccc1C
inactive
C/C=C1\SC(=S)NC1=O
inactive
Cc1c2ccccc2c(C)c2c1ccc1ccccc12
inactive
Oc1c(Br)c(Br)c(O)c(Br)c1Br
inactive

Could you now consider this next compound?
Hi, do you know how Cc1ccc2nc(C[n+]3ccc4ccccc4c3)ccc2c1 came out in this test?
inactive
